The origin of these recorded values is PubChem BioAssay (NCI).

# Test system: K-562 leukemia
# method: NCI-60 one-dose screen, 48 h (100 = growth as untreated, 0 = no growth, -100 = all killed)
# recorded.conditions: 10 µM unless noted
The panel holds about 83,000 compounds, 20% with a hit somewhere; the sample as a whole holds those more often.
assay.endpoint: growth (%)

{"compound": "C=CCn1cc(-c2nc3ccccc3s2)c2cc(-c3ccc4c5c(cccc35)C(=O)N(CCN3CCNCC3)C4=O)ccc21", "result.number": -51.9}
{"compound": "CC12CCC3C4(C)COC(c5ccco5)OC4CCC3(C)C1CC(C1=CCOC1=O)O2 (stereo not given)", "result.number": 92.6}
{"compound": "O=C(c1ccccc1)c1c(/C=C/c2ccccc2)c2ccccc2[nH]c1=O", "result.number": 82.4}
{"compound": "N=C(N)c1ccc(-c2ccc(-c3ccc(-c4cccs4)s3)s2)cc1", "result.number": 58}
{"compound": "Cc1ccc(N2CCN(C(C)C(N)=O)CC2)cc1 (stereo not given)", "result.number": 114}
{"compound": "COc1cc2c(cc1OCCCCCn1c3ccccc3c3ccccc31)N=C[C@@H]1CCCN1C2=O", "result.number": -21.1}
{"compound": "CC(=O)Nc1nc(N)nc(NC(C)=O)c1N=O", "result.number": 124}
{"compound": "O=C(Nc1cccc(-n2cc(-c3ccncc3)c(-c3ccc(Cl)c(O)c3)n2)c1)c1ccccc1", "result.number": 60.7}
{"compound": "Cc1c(C(=N)C(C#N)C#N)c(=N)oc2c1ccc1ccccc12", "result.number": 72.8}
{"compound": "COC(OC)c1ccccc1", "result.number": 108}
